test system: cultured murine cortical neurons; test: Protection of Cultured Cortical Neurons from Excitotoxic Injury Induced by NMDA (NE Assay); type: cell-based, mice; details: NMDA 62.5 μM, LDH release 24 hours after starting the exposure
Observed Property: neuroprotection (cell viability by LDH release)

Here are 4 compounds together with their reported answers.
CN(C)C1C(O)=C(C(N)=O)C(=O)[C@@]2(O)C(O)=C3C(=O)c4c(O)ccc(CNCC(C)(C)C)c4C[C@H]3C[C@@H]12 (stereo partly drawn) | good neuroprotection
CN(C)CCCOC(=O)/C=C/c1ccc(O)c2c1C[C@H]1C[C@H]3[C@H](N(C)C)C(O)=C(C(N)=O)C(=O)[C@@]3(O)C(O)=C1C2=O | good neuroprotection
CN(C)c1cc(NC(=O)Nc2cccc(F)c2)c(O)c2c1C[C@H]1C[C@H]3[C@@H](N(C)C)C(O)=C(C(N)=O)C(=O)[C@@]3(O)C(O)=C1C2=O | good neuroprotection
CN(C)c1cc(NCc2ccc3c(c2)OCO3)c(O)c2c1C[C@H]1C[C@H]3[C@H](N(C)C)C(O)=C(C(N)=O)C(=O)[C@@]3(O)C(O)=C1C2=O | good neuroprotection

Exercise: Please tell me the measured neuroprotection (cell viability by LDH release) for "CN(C)[C@@H]1C(O)=C(C(N)=O)C(=O)[C@@]2(O)C(O)=C3C(=O)c4c(O)c(C(C)(C)C)cc(CN)c4C[C@H]3C[C@@H]12" ; system: cultured murine cortical neurons.
Solution: good neuroprotection

Exercise: Please tell me the measured neuroprotection (cell viability by LDH release) for "C=C1c2cccc(O)c2C(=O)C2=C(O)[C@]3(O)C(=O)C(C(N)=O)=C(O)[C@@H](N(C)C)[C@@H]3[C@@H](O)[C@H]12" ; system: cultured murine cortical neurons.
Solution: good neuroprotection

----------
As shown below, each of these molecules has a reported MIC value.
tested on: E. coli mL308 225; assay: In Vitro Anti-Bacterial Activity Assay (MIC), gram negative; format: cell-based; conditions: Escherichia coli, ML308225, 18 h, gram negative bacteria; read-out: Antibiotic Activity Gram − (MIC)

Here are 2 molecules together with their reported answers.
COCCOC(=O)NCc1cc(N(C)C)c2c(c1O)C(=O)C1=C(O)[C@]3(O)C(=O)C(C(N)=O)=C(O)[C@@H](N(C)C)[C@@H]3C[C@@H]1C2 | > 4 µg/mL
CCCCOc1ccc(-c2ccc(N(C)C)cc2)c2c1C(=O)C1=C(O)[C@]3(O)C(=O)C(C(N)=O)=C(O)[C@@H](N(C)C)[C@@H]3C[C@@H]1C2 | > 4 µg/mL

Read the next record carefully.
Exercise: Return the recorded MIC value; entry: CN(C)[C@@H]1C(O)=C(C(N)=O)C(=O)[C@@]2(O)C(O)=C3C(=O)c4c(O)ccc(-c5ccc(CNCC(F)(F)F)cc5)c4C[C@H]3C[C@@H]12 [drawing 3505]
Solution: < 4 µg/mL

----------
test system: E. coli mL308 225; assay: In Vitro Anti-Bacterial Activity Assay (MIC), gram negative; format: cell-based; details: Escherichia coli, ML308225, 18 h, gram negative bacteria; read-out: Antibiotic Activity Gram − (MIC)
As shown below, each of these compounds has a reported MIC value.

Here are 3 compounds together with their reported answers.
CN(C)[C@@H]1C(O)=C(C(N)=O)C(=O)[C@@]2(O)C(O)=C3C(=O)c4c(O)ccc(C5CCOC5)c4C[C@H]3C[C@@H]12 (some centres unmarked) | < 4 µg/mL
CCc1cc(CNCCC(F)(F)F)c(O)c2c1C[C@H]1C[C@H]3[C@H](N(C)C)C(O)=C(C(N)=O)C(=O)[C@@]3(O)C(O)=C1C2=O | < 4 µg/mL
CO/N=C/c1ccc(OC)c(-c2ccc(O)c3c2C[C@H]2C[C@H]4[C@H](N(C)C)C(O)=C(C(N)=O)C(=O)[C@@]4(O)C(O)=C2C3=O)c1 | < 4 µg/mL

Exercise: Return the recorded MIC value; entry: "CN(C)c1ccc(O)c2c1C[C@H]1C[C@H]3CC(O)=C(C(N)=O)C(=O)[C@@]3(O)C(O)=C1C2=O"
Solution: < 4 µg/mL

Exercise: Return the recorded MIC value; entry: "CN(C)c1cc(CCCNS(C)(=O)=O)c(O)c2c1C[C@H]1C[C@H]3[C@H](N(C)C)C(O)=C(C(N)=O)C(=O)[C@@]3(O)C(O)=C1C2=O"
Solution: > 4 µg/mL
